Measurement Target: Mitogen-activated protein kinase 9 (Homo sapiens, UniProt P45984)
Sequence (P45984 whole entry): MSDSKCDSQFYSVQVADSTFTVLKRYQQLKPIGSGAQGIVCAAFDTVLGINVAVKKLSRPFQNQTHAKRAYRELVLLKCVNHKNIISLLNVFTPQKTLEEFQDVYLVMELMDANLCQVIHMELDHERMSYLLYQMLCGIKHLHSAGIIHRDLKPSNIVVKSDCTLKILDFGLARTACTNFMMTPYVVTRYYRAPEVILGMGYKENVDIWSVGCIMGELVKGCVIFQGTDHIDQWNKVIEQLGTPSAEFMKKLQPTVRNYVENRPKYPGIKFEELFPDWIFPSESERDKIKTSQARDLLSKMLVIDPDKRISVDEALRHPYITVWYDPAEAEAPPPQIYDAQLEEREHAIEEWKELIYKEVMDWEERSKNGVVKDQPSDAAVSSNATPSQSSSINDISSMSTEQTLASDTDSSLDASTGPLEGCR
Protocol Details: Inhibition of JNK2 (unknown origin) using GST-c-jun (1-221) as substrate by scintillation counter analysis
Recorded Endpoint: IC50 (µM)
The figure you give is taken to be in µM; do not add the unit.

Name the reported IC50 value associated with the substance H-PKRPTTLNLFRRRQRRKKRG-OH
0.092

* * *

Measurement Target: Mitogen-activated protein kinase 10 (Homo sapiens, UniProt P53779)
Sequence (P53779 whole entry): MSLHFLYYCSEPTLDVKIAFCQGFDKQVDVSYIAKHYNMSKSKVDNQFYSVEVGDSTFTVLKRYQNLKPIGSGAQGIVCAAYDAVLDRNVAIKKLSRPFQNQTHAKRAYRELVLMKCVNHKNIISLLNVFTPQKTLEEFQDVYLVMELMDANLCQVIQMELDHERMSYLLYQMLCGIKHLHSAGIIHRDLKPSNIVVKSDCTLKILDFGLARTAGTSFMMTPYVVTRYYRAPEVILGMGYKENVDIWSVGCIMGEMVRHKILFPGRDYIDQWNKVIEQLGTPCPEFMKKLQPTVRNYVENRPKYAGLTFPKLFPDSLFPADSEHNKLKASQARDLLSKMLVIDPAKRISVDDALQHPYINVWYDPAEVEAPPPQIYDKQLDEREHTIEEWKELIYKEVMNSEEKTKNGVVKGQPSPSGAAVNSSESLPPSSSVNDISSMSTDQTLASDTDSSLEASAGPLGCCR
Protocol Details: Inhibition of JNK3 (unknown origin) irradiated with 400 nm light
Recorded Endpoint: IC50 (nM)
Output spec: scalar in nM, unitless text.

Enter reported IC50 observed with Mitogen-activated protein kinase 10 (Homo sapiens, UniProt P53779) for O=[N+]([O-])c1cnc(Sc2nnc(O)n2-c2ccc3c(c2)OCCO3)s1
31.9

* * *

Measurement Target: Leucine-rich repeat serine/threonine-protein kinase 2 (Homo sapiens, UniProt Q5S007)
Sequence (Q5S007 whole entry): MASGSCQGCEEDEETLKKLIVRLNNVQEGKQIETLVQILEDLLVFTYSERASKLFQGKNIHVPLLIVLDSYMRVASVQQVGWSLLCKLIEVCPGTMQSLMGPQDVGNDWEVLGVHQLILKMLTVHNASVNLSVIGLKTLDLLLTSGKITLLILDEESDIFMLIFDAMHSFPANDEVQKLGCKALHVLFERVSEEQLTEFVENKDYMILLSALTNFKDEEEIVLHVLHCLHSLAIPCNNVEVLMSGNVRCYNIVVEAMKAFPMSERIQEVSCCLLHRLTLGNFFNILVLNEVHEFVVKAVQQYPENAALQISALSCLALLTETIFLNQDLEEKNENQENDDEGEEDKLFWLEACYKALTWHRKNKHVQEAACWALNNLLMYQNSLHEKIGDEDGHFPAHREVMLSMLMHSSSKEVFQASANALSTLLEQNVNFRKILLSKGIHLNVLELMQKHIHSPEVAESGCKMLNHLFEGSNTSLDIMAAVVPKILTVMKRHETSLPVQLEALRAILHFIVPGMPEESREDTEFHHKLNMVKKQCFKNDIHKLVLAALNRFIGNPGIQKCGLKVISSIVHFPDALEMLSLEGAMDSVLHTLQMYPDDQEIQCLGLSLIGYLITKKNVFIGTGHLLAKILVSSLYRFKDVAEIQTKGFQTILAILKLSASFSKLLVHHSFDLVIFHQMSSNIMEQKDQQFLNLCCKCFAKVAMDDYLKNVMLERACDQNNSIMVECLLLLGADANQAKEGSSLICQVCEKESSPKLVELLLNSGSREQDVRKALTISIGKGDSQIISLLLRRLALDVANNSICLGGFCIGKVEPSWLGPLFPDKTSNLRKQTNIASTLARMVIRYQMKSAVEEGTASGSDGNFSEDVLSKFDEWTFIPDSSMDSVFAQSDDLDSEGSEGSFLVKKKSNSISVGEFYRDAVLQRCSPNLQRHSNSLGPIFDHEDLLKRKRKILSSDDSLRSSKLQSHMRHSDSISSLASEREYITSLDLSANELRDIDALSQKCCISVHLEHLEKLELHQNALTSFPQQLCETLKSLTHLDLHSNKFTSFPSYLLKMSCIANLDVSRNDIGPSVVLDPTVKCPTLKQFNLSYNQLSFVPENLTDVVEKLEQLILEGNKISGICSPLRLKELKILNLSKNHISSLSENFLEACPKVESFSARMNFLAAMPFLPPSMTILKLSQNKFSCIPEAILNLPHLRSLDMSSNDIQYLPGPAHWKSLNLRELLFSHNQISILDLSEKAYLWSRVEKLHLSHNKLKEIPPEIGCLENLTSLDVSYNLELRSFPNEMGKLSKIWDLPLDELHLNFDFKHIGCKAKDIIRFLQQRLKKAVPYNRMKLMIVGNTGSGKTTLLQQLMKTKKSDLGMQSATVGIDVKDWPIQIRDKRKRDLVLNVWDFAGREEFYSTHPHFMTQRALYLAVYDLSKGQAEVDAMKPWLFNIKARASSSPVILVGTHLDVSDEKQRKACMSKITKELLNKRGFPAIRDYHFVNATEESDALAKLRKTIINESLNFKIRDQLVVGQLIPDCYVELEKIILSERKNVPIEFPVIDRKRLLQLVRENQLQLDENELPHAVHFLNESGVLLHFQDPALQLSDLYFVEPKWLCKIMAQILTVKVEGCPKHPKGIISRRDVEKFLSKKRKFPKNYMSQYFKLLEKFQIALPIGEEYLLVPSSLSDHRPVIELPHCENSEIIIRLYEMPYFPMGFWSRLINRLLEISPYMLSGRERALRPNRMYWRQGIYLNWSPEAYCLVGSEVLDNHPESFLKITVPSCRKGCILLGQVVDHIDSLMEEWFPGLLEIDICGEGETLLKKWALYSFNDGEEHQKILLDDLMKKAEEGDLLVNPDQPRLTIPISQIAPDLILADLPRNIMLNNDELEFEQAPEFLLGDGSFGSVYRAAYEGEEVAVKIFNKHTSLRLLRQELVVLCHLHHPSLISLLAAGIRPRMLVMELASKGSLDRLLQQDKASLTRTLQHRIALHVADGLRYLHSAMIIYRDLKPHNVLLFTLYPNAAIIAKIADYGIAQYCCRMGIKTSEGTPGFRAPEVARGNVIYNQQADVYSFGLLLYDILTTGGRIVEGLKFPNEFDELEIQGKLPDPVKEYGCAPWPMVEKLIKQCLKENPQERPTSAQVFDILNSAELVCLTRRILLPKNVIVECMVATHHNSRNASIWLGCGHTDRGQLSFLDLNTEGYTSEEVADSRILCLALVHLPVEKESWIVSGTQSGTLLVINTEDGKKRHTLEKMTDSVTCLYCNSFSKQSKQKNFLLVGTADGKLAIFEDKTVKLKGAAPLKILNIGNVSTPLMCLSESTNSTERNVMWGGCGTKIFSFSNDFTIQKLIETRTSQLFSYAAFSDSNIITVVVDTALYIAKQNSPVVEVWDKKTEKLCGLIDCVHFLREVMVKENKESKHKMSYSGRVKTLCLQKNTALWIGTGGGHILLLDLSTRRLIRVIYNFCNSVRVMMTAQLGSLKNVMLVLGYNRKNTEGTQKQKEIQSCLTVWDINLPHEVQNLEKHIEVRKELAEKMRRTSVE
Recorded Endpoint: IC50 (nM)
Give your result in nM as a bare value.

Request the reported IC50 associated with CC(C)CN(CC(=O)NCCCCCCNC(=O)c1ccc(-c2n[nH]c3ccccc23)cc1)C(=O)CNC(=O)C1COc2ccccc2C1 (stereo unspecified)
12

* * *

Measurement Target: Mitogen-activated protein kinase 8 (Homo sapiens, UniProt P45983)
Sequence (P45983 whole entry): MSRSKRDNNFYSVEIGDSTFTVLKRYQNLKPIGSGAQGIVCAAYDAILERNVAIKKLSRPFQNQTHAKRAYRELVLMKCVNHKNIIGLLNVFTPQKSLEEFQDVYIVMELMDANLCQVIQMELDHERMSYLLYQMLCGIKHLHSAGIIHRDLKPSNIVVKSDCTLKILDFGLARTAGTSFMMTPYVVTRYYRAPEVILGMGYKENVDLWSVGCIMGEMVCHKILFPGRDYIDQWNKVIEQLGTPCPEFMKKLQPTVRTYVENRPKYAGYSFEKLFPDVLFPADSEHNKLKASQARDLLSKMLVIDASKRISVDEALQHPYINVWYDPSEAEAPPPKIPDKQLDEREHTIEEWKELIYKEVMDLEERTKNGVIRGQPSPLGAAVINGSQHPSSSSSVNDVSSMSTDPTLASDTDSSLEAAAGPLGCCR
Protocol Details: Inhibition of JNK1 (unknown origin) using biotinylated FL-ATF-2 as substrate incubated for 15 mins by HTRF assay
Recorded Endpoint: pIC50
Please express pIC50 as -log10 of the molar concentration.

Quick one: pIC50 for Cc1ccc(NC(=O)c2cccc(-n3cc(NC(=O)Nc4ccccc4Cl)cn3)c2)cn1 ?
5.85

* * *

Measurement Target: Mitogen-activated protein kinase 14 (Homo sapiens, UniProt Q16539)
Sequence (Q16539 whole entry): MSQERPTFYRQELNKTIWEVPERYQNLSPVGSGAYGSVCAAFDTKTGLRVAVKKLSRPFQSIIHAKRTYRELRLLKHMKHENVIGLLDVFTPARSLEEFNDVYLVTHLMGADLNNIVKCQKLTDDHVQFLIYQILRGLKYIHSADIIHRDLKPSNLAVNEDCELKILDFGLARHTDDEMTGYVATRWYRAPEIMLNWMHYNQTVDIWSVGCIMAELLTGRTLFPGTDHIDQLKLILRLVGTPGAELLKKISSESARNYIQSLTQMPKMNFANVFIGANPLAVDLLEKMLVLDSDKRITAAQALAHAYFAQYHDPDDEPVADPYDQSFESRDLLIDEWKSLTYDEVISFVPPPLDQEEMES
Protocol Details: Inhibition of p38alpha (unknown origin)
Recorded Endpoint: pIC50
// pIC50: -log10(molar conc.)

Tell me the measured pIC50 of C=CC(=O)Nc1cccc(C(=O)Nc2ccc(Nc3cc(-c4c(C)nc(SC)n4C)ccn3)cc2)c1 , please.
5.71

* * *

Measurement Target: Mitogen-activated protein kinase 8 (Mus musculus)
Sequence (Q91Y86 whole entry): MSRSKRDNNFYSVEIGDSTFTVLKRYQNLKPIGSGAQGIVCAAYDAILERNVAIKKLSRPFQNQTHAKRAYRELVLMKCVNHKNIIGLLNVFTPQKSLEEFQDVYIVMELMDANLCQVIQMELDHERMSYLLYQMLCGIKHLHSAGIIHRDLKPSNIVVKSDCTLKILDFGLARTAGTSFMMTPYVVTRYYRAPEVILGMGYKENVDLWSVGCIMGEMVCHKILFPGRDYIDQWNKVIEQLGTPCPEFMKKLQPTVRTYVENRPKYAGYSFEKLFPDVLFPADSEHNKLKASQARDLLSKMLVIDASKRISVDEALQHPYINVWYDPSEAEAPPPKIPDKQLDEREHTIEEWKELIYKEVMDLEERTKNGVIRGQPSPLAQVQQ
Protocol Details: Inhibition of JNK1 in mouse JB6 C1 41 cell lysate incubated for 1 hr relative to control
Recorded Endpoint: pIC50
Keep in mind that pIC50 stands for -log10 of concentration in molar terms.

What does the data say about its pIC50? Entry: O=c1c(O)c(-c2ccc(O)c(O)c2)oc2cc(O)c(O)c(O)c12 [QUERCETAGETIN]
5.34

* * *

Measurement Target: Mitogen-activated protein kinase 8 (Homo sapiens, UniProt P45983)
Protocol Details: Inhibition of JNK1 (unknown origin) using GST-c-jun (1-221) as substrate by scintillation counter analysis
Recorded Endpoint: IC50 (nM)
Write down the numeric answer in nM and omit the unit.

Requested read-out IC50, target or system Mitogen-activated protein kinase 8 (Homo sapiens, UniProt P45983), entry H-PKRPTTLNLFRRRQRRKKRG-OH
1160

* * *

Measurement Target: Mitogen-activated protein kinase 8 (Homo sapiens, UniProt P45983)
Protocol Details: Inhibition of JNK1 (unknown origin) incubated for 1 hr by TR-FRET assay
Recorded Endpoint: pIC50
Friendly reminder that pIC50 comes from taking -log10 of the concentration in mol/L.

Query: pIC50; subject: COCCNc1nnc(Sc2ncc([N+](=O)[O-])s2)s1
6.55

* * *

Measurement Target: Mitogen-activated protein kinase 10 (Homo sapiens, UniProt P53779)
Protocol Details: Inhibition of JNK3 (unknown origin) using biotinylated FL-ATF-2 as substrate incubated for 15 mins by HTRF assay
Recorded Endpoint: pIC50
Please report pIC50 as the negative decimal logarithm of the molar concentration, giving only the number.

Quick check: pIC50 of Cc1ccc(NC(=O)c2cccc(-n3cc(NC(=O)Nc4ccccc4Cl)cn3)c2)cn1 ?
7.26

* * *

Listed here: items and their measured IC50.
Measurement Target: Mitogen-activated protein kinase 10 (Homo sapiens, UniProt P53779)
Protocol Details: Inhibition of JNK3 (unknown origin)
Field: numeric (µM). Do not append units.

[[record]]
compound = "O=C(CSc1c(-c2ccccc2)c2cc(Cl)ccc2[nH]c1=O)NC1CCCC1"
recorded_endpoint = "IC50"
experimental_result = 0.0582

[[record]]
compound = "CC(C)CN(CC(=O)NCCCCCCNC(=O)c1ccc(-c2n[nH]c3ccccc23)cc1)C(=O)CNC(=O)C1COc2ccccc2C1 (centres undefined)"
recorded_endpoint = "IC50"
experimental_result = 0.099

[[record]]
compound = "C=CC(=O)Nc1cccc(C(=O)Nc2ccc(Nc3cc(-c4c(C)nc(SC)n4C)ccn3)cc2)c1"
recorded_endpoint = "IC50"
experimental_result = 2


Which value of IC50 has been reported for CSc1nc(C)c(-c2ccnc(Nc3ccc(N4CCOCC4)cc3)c2)[nH]1 in the records?
0.184
